This listing pairs compounds with measured melting point.
ASSAY_METRIC: melting point

[[record]]
compound = "CCc1nc(C(=O)O)nn1-c1ccccc1Cl"
reported_result = "164 to 166 °C"

[[record]]
compound = "Nc1ccc2nc(N3CCOCC3)sc2c1"
reported_result = "166 to 168 °C"

[[record]]
compound = "CC(C)(CO)C(CN)c1ccccc1 (stereo not drawn)"
reported_result = "116 to 118 °C"

[[record]]
compound = "Nc1nc(-c2ccccc2Cl)c(-c2ccccc2Cl)s1"
reported_result = "198 to 200 °C"

[[record]]
compound = "COc1ccc(C(C)=O)cc1-c1cccc(C(F)(F)F)c1"
reported_result = "76 to 78 °C"

[[record]]
compound = "O=C(O)c1cc(F)c(F)cc1C(=O)O"
reported_result = "158 to 160 °C"

[[record]]
compound = "COc1cc(C=O)c2c(c1)CC(C)O2 (stereo not drawn)"
reported_result = "71 to 73 °C"

[[record]]
compound = "N#CCC(=O)c1c[nH]c2cc(F)ccc12"
reported_result = "265 to 267 °C"

[[record]]
compound = "N#Cc1cc(Cl)ccn1"
reported_result = "81 to 85 °C"

[[record]]
compound = "O=C(O)C(Oc1ccc(Cl)c(Cl)c1)c1ccccc1 (stereo not drawn)"
reported_result = "59 to 61 °C"

[[record]]
compound = "CC(C)CN1C(=O)CC(=O)NC1=O"
reported_result = "144 to 146 °C"

[[record]]
compound = "O=C(O)c1csc(-c2ccc(Cl)cc2Cl)n1"
reported_result = "204 to 206 °C"

[[record]]
compound = "Nc1ccccc1Cc1nc(-c2ccsc2)no1"
reported_result = "118 to 120 °C"

[[record]]
compound = "O=C(O)CSCc1cccc(Cl)c1"
reported_result = "74 to 76 °C"

[[record]]
compound = "COc1ccnc(NN)n1"
reported_result = "119 to 121 °C"

[[record]]
compound = "CC(C)(C)OC(=O)NC(COS(C)(=O)=O)COS(C)(=O)=O"
reported_result = "96 to 98 °C"

[[record]]
compound = "COc1cc(I)c(C(=O)O)cc1OC"
reported_result = "200 to 202 °C"

[[record]]
compound = "CCCCn1ncc(C(=O)O)c1C"
reported_result = "77 to 79 °C"

[[record]]
compound = "CCc1nc(C)c(C(=O)O)s1"
reported_result = "165 to 167 °C"

[[record]]
compound = "CCOC(=O)C1CCN(S(=O)(=O)Cl)CC1"
reported_result = "38 to 40 °C"

[[record]]
compound = "CC(C)(C)OC(=O)Nc1ccc(CC(N)=S)cc1"
reported_result = "160 to 162 °C"

[[record]]
compound = "NC(=O)Cc1cc(Br)c(-c2ccc(N)cc2)s1"
reported_result = "189 to 191 °C"

[[record]]
compound = "O=C(O)CC1CCC(c2ccccc2)CC1 (stereo not drawn)"
reported_result = "83 to 85 °C"

[[record]]
compound = "O=C(O)CC1Sc2ccc(C(F)(F)F)cc2NC1=O (stereo not drawn)"
reported_result = "236 to 238 °C"

[[record]]
compound = "Nc1ncc(Cc2ccc(Cl)c(C(F)(F)F)c2)s1"
reported_result = "70 to 72 °C"

[[record]]
compound = "Cc1c(C(=O)O)cnn1C1CCCCC1"
reported_result = "143 to 145 °C"

[[record]]
compound = "Cc1cc(Cl)n2ncnc2c1"
reported_result = "93 to 95 °C"

[[record]]
compound = "CS(=O)(=O)NC1CCC(O)CC1 (stereo not drawn)"
reported_result = "149 to 151 °C"

